Sourced from ChEMBL document CHEMBL4513216

Procedure Details: Toxicity liver stage against HepG2, at 10uM
Type: cell-based
Set-up: test concentration 10 uM, cell line HepG2-A16-CD81EGFP
Condition Description: human, HepG2-A16-CD81EGFP cells; read-out: INHIBITION
Measurement Kind: cytotoxicity at 10 µM (%)
Please respond with the number in % and leave the unit unwritten.

The examples below pair each entry with its known result.
1. CC(=O)N1CCN(C(=O)CN2CCCC2c2c(C)nn(C)c2C)CC1 (centres undefined) : 6.34
2. CC(C)NC(=O)CNC(=O)C12CCC(=O)N1c1cc(Cl)ccc1S2 (centres undefined) : 11.7
3. Cc1ccn(CCNc2ncnc3c2CCN(c2cnccn2)CC3)n1 : -1.81
4. Cn1ccc(C2CCCCCN2C(=O)c2cccnc2)n1 (centres undefined) : 6.16
5. c1cnnc(N2CCCC2CNCc2nc(C3CC3)no2)c1 (centres undefined) : -22.6
6. COc1ccc2nc(C3CC3)cc(C(=O)NCC(=O)N(C)C)c2c1 : -3.41
7. Cc1cc(C)cc(-n2ncc3c2CCCC3N)c1 (centres undefined) : 7.63
8. CCc1ccc(C(=O)O)cc1S(=O)(=O)Nc1ccc(F)c(C#N)c1 : -10.9

-- ask Entry COc1cc(CC2CC(C(N)=O)=NO2)cc2c1OCO2 (centres undefined) has what cytotoxicity at 10 µM?
-- reply 5.32

-- ask Given the compound COCC1c2nnn(CC3CC3)c2CCN1Cc1ccncc1 (centres undefined) , what is its reported cytotoxicity at 10 µM?
-- reply 3.37
